List of cytotoxicity at 10 µM values.
# Assay Remarks: Toxicity liver stage against HepG2, at 10uM
# Type: cell-based
# Set-up: test concentration 10 uM, cell line HepG2-A16-CD81EGFP
# Condition Label: human, HepG2-A16-CD81EGFP cells; read-out: INHIBITION

{"Compound": "Cc1csc(CCNC(=O)C2CCN(CC(N)=O)CC2)n1", "cytotoxicity at 10 µM / %": -5.26}
{"Compound": "Cc1nccn1C1CCCN(C(=O)c2ccc3c(c2)CCC3)C1 (stereo unspecified)", "cytotoxicity at 10 µM / %": -13.8}
{"Compound": "CC1(C)CC(N(Cc2ccccc2)Cc2cccnc2)CC(C)(C)N1", "cytotoxicity at 10 µM / %": 2.67}
{"Compound": "Cc1nn(C)c(C)c1C1CCCN1Cc1nc(-c2ccco2)no1 (stereo unspecified)", "cytotoxicity at 10 µM / %": -3.17}
{"Compound": "Cc1csc(C2CCCN(C(=O)c3ccc(=O)n(C)n3)C2)n1 (stereo unspecified)", "cytotoxicity at 10 µM / %": 6.76}
{"Compound": "CCn1ccnc1CN1CCCN(C(=O)COC2CCCC2)CC1", "cytotoxicity at 10 µM / %": -6.58}
{"Compound": "CC(C1CCN(Cc2cccc(OC(F)F)c2)CC1)N1CCOCC1 (stereo unspecified)", "cytotoxicity at 10 µM / %": -9.2}
{"Compound": "OC1CCCN(Cc2ccc(F)c3cccnc23)C1 (stereo unspecified)", "cytotoxicity at 10 µM / %": 4.75}
{"Compound": "CCc1nnc2n1CCN(C(=O)c1ccc(-c3ccco3)nc1C)C2", "cytotoxicity at 10 µM / %": -7.23}
{"Compound": "NCC(c1ccc(Cl)cc1)N1CCc2sccc2C1 (stereo unspecified)", "cytotoxicity at 10 µM / %": 6.33}
{"Compound": "CC(O)CNC(=O)c1nc(Cc2c(Cl)cccc2Cl)no1 (stereo unspecified)", "cytotoxicity at 10 µM / %": 3}
{"Compound": "CCC(C)NC(=O)c1ccc(NC(=O)CCc2ccncc2)c(C)c1 (stereo unspecified)", "cytotoxicity at 10 µM / %": 4.31}
{"Compound": "COc1ccc(CN(C)C(=O)NCc2c(C)cc(C)nc2OC)cc1", "cytotoxicity at 10 µM / %": -7.11}
{"Compound": "N#Cc1ncn(CC(=O)Nc2cc(Cl)ccc2F)n1", "cytotoxicity at 10 µM / %": -2.75}
{"Compound": "O=C(c1cnccn1)N1CCO[C@H]2[C@H](OCc3cccnc3)CC[C@@H]21", "cytotoxicity at 10 µM / %": -9.45}
{"Compound": "CCC(O)Cn1nc(-c2ccc(C(=O)O)cc2)cc1-c1ccc(F)cc1 (stereo unspecified)", "cytotoxicity at 10 µM / %": 1.24}

----------
# Assay Remarks: Toxicity liver stage against HepG2, at 10uM
# Type: cell-based
# Design: test concentration 10 uM, cell line HepG2-A16-CD81EGFP
# Condition Label: human, HepG2-A16-CD81EGFP cells; read-out: INHIBITION
Measure Name: cytotoxicity at 10 µM

{"Compound": "CCn1nccc1CNC(=O)C1CCCO1 (stereo unspecified)", "Result": "-2.21%"}
{"Compound": "CCOCc1ccccc1CNc1ccc2nncn2n1", "Result": "0.84%"}
{"Compound": "CNC(=O)Cc1ccccc1NC(=O)C1CCN(C2CCCCC2)C1 (stereo unspecified)", "Result": "-0.355%"}
{"Compound": "Cc1cc(CCC(N)=O)cc(C2CCCN2Cc2ccnn2C)n1 (stereo unspecified)", "Result": "-19.8%"}
{"Compound": "CCn1nc2c(cc1=O)CN(CCCOc1ccc(C#N)cc1)CC2", "Result": "14%"}
{"Compound": "O=C(CCC(=O)NCc1cccc(Br)c1)NCCN1CCCC1", "Result": "10%"}
{"Compound": "CCN(CCn1cccn1)C(=O)CN1C(=O)OC[C@@H]1C(C)C", "Result": "1.97%"}
{"Compound": "Cc1nc(N2CCC(CN3CCCC3)CC2)c2cnn(C)c2n1", "Result": "8.39%"}
{"Compound": "CN(C)CCNC(=O)c1cc(-c2cnc(N3CCOCC3)nc2)cn1C", "Result": "-78.2%"}
{"Compound": "CN(Cc1ccco1)Cc1ccccc1CNC(=O)c1cnc[nH]1", "Result": "2.6%"}
{"Compound": "CC(C)COC(=O)N1CCCN(C(=O)c2ccnc(N(C)C)c2)CC1", "Result": "-15.1%"}

The origin of these recorded values is ChEMBL document CHEMBL4513216.
